# measurement target: Signal transducer and activator of transcription 6 (Homo sapiens, UniProt P42226)
# Sequence (P42226 whole entry): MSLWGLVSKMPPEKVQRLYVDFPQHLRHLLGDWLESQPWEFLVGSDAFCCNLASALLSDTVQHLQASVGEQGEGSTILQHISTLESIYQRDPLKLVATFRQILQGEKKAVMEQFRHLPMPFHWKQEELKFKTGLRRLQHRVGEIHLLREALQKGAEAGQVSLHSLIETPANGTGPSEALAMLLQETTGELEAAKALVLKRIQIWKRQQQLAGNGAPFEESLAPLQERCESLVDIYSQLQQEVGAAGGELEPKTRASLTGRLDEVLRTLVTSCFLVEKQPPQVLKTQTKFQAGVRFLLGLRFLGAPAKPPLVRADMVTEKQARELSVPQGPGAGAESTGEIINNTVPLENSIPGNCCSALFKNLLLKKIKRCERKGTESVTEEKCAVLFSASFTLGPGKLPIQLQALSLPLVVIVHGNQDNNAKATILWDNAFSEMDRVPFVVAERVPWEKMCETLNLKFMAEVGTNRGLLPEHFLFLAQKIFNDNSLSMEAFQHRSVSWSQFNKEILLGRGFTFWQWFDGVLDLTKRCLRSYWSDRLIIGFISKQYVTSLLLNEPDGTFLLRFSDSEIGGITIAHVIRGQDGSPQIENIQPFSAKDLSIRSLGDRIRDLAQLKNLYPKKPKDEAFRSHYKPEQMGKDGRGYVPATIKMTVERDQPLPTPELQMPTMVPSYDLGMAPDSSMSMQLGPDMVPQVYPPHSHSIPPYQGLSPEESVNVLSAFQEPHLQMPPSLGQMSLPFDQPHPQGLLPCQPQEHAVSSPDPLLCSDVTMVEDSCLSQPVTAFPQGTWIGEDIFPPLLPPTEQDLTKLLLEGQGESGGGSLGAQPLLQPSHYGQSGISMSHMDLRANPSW
# test details: Inhibition of human STAT6 expressed in 293-EBNA cells assessed as inhibition of IL4-induced STAT6 transcriptional activation after 1 hr by Photinus pylaris luciferase reporter gene assay
quantity measured: IC50 (nM)

According to the records, this compound CC(C)[C@@H](C)NC(=O)c1cc(-c2cc3ccccc3s2)cc(C(=O)NCCc2ccccn2)n1 displays IC50 of 3200

According to the records, this compound CC(C)[C@@H](C)NC(=O)c1cc(-c2cc3ccccc3n2C)cc(C(=O)NCCc2ccccn2)n1 displays IC50 of 2700

Data provenance: ChEMBL document CHEMBL2203017
